The compounds listed here are annotated with their pIC50.
- assay_comment: Inhibition of […] Influenza A Taiwan 3446 2002(H3N2) neuraminidase infected in dog MDCK cells using MU-NANA as substrate assessed as reduction in viral replication incubated for 72 hrs by spectrofluorometric analysis
pIC50: −log10 of the molar value.
value_kind: pIC50

> print(dat)
                           substance.smiles  data.value
1  CC(=O)N[C@H]1[C@H]([C@H](O)[C@H](O)CO)OC(C(=O)O)=C[C@@H]1NC(=N)NC(=O)CCc1ccc2ccccc2c1        7.17
2  CC(=O)N[C@H]1[C@H]([C@H](O)[C@H](O)CO)OC(C(=O)O)=C[C@@H]1NC(=N)NC(=O)CSc1ccc2ccccc2c1        7.60

----------
- assay_comment: Inhibition of avian Influenza A virus SN 33 (H1N1) neuraminidase infected in dog MDCK cells using MU-NANA as substrate assessed as reduction in viral replication incubated for 72 hrs by spectrofluorometric analysis
pIC50: −log10 of the molar value.
value_kind: pIC50

> print(dat)
                           substance.smiles  data.value
1  CC(=O)N[C@H]1[C@H]([C@H](O)[C@H](O)CO)OC(C(=O)O)=C[C@@H]1NC(=N)NC(=O)CSc1ccc2ccccc2c1        7.70
2  CC(=O)N[C@H]1[C@H]([C@H](O)[C@H](O)CO)OC(C(=O)O)=C[C@@H]1NC(=N)NC(=O)CCc1ccc2ccccc2c1        7.12
